Tested Target: Guanine nucleotide-binding protein G(i) subunit alpha-3 (Homo sapiens)
Assay Details: GIV-Galphai3 complex disruption, bead proximity readout – biochemical, AlphaScreen, His-GIV, GST-Galphai3, orthogonal assay for GIV-Galpha-i inhibitor project, confirmation (AID 1259351)
Run Parameters: purified proteins, 90 min, at 100 µM
The list shows a part of the results. The source made the active and inactive calls.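 The calls were made as follows: active = inhibition score at or above a set limit, where the score is 100 minus the three-replicate mean percent of control signal; inactive = the rest.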
Outcomes: label 1 = active, label 0 = inactive

> print(dat)
                                    molecule                             tested.target    class
 1  CC(=O)Nc1ccc(Nc2c3c4c(cccc4[nH]c2=O)C(=O)c2ccccc2-3)cc1  Guanine nucleotide-binding protein G(i) subunit alpha-3 (Homo sapiens)  label 0
 2  Cc1nn(-c2ccccc2)c2sc(-c3noc(-c4ccccc4F)n3)cc12  Guanine nucleotide-binding protein G(i) subunit alpha-3 (Homo sapiens)  label 0
 3  COC(=O)Cn1nc2c(-c3nc(-c4ccc(Cl)cc4)no3)cccn2c1=O  Guanine nucleotide-binding protein G(i) subunit alpha-3 (Homo sapiens)  label 0
 4  O=C(O)c1cc(NS(=O)(=O)c2ccc3c(c2)CCCC3)cnc1N1CCOCC1  Guanine nucleotide-binding protein G(i) subunit alpha-3 (Homo sapiens)  label 0
 5     CCOC(=O)c1nc2cc(C)c(C)cc2nc1NC1CCCCC1  Guanine nucleotide-binding protein G(i) subunit alpha-3 (Homo sapiens)  label 0
 6              CC(=O)Oc1cccc2c1C(=O)C=CC2=O  Guanine nucleotide-binding protein G(i) subunit alpha-3 (Homo sapiens)  label 0
 7  CCC(=O)N1CCc2cc(N3CC(C(=O)N4CCN(C(C)C)CC4)CC3=O)ccc21 (stereo unspecified)  Guanine nucleotide-binding protein G(i) subunit alpha-3 (Homo sapiens)  label 0
 8  CCOc1cc(/C=C2/C(=O)N(c3nn[nH]n3)N=C2C)cc(Cl)c1OCC  Guanine nucleotide-binding protein G(i) subunit alpha-3 (Homo sapiens)  label 1
 9  O=C(O)CCC(C(=O)O)N1C(=O)/C(=C\c2ccco2)SC1=S (stereo unspecified)  Guanine nucleotide-binding protein G(i) subunit alpha-3 (Homo sapiens)  label 1
10    O=C(O)c1c2ccccc2[nH]c2c1oc1cc(=O)ccc12  Guanine nucleotide-binding protein G(i) subunit alpha-3 (Homo sapiens)  label 1
11  Cc1ccc(NC(=O)c2nc[nH]c2C(=O)N2CCCCC2)c(C(=O)c2ccccc2)c1  Guanine nucleotide-binding protein G(i) subunit alpha-3 (Homo sapiens)  label 0
